- Protocol Summary: Titration pKa' in 66 percent DMF
- Format: physicochemical
Listing of entries alongside the reported pKa'.

Molecule | pKa'
CCC1(O)CC2CN(CCc3c([nH]c4ccccc34)C(C(=O)OC)(c3cc4c(cc3OC)N(C)C3C(O)(C(=O)NCCCSSCCCNC(=O)C5(O)C(O)C6(CC)C=CCN7CCC8(c9cc(C%10(C(=O)OC)CC%11CN(CCc%12c%10[nH]c%10ccccc%12%10)CC(O)(CC)C%11)c(OC)cc9N(C)C58)C76)C(O)C5(CC)C=CCN6CCC43C65)C2)C1 (centres unmarked) | 7.21
CCC12CN3CCc4c([nH]c5ccccc45)C(C(=O)OC)(c4cc5c(cc4OC)N(C)C4C(O)(C(=O)NCCSSCCNC(=O)C6(O)C(O)C7(CC)C=CCN8CCC9(c%10cc(C%11(C(=O)OC)CC%12CN(CCc%13c%11[nH]c%11ccccc%13%11)CC%11(CC)OC%12%11)c(OC)cc%10N(C)C69)C87)C(O)C6(CC)C=CCN7CCC54C76)CC(C3)C1O2 (centres unmarked) | 7.0
CCC1(O)CC2CN(CCc3c([nH]c4ccccc34)C(C(=O)OC)(c3cc4c(cc3OC)N(C)C3C(O)(C(=O)NCCCCCCNC(=O)C5(O)C(O)C6(CC)C=CCN7CCC8(c9cc(C%10(C(=O)OC)CC%11CN(CCc%12c%10[nH]c%10ccccc%12%10)CC(O)(CC)C%11)c(OC)cc9N(C)C58)C76)C(O)C5(CC)C=CCN6CCC43C65)C2)C1 (centres unmarked) | 7.27
CCC1(O)CC2CN(CCc3c([nH]c4ccccc34)C(C(=O)OC)(c3cc4c(cc3OC)N(C)C3C(O)(C(=O)NCC[Se][Se]CCNC(=O)C5(O)C(O)C6(CC)C=CCN7CCC8(c9cc(C%10(C(=O)OC)CC%11CN(CCc%12c%10[nH]c%10ccccc%12%10)CC(O)(CC)C%11)c(OC)cc9N(C)C58)C76)C(O)C5(CC)C=CCN6CCC43C65)C2)C1 (centres unmarked) | 7.22

Task: Which pKa' reading was recorded for the molecule CCC1(O)CC2CN(CCc3c([nH]c4ccccc34)C(C(=O)OC)(c3cc4c(cc3OC)N(C)C3C(O)(C(=O)NCCCNCCCNC(=O)C5(O)C(O)C6(CC)C=CCN7CCC8(c9cc(C%10(C(=O)OC)CC%11CN(CCc%12c%10[nH]c%10ccccc%12%10)CC(O)(CC)C%11)c(OC)cc9N(C)C58)C76)C(O)C5(CC)C=CCN6CCC43C65)C2)C1 (centres unmarked) ?
Result: 7.17
